- subject.of.test: human ADAMTS6 (Homo sapiens (Human), UniProt Q9UKP5)
- Sequence (Q9UKP5 other isoform, or with tags, fused parts or gaps): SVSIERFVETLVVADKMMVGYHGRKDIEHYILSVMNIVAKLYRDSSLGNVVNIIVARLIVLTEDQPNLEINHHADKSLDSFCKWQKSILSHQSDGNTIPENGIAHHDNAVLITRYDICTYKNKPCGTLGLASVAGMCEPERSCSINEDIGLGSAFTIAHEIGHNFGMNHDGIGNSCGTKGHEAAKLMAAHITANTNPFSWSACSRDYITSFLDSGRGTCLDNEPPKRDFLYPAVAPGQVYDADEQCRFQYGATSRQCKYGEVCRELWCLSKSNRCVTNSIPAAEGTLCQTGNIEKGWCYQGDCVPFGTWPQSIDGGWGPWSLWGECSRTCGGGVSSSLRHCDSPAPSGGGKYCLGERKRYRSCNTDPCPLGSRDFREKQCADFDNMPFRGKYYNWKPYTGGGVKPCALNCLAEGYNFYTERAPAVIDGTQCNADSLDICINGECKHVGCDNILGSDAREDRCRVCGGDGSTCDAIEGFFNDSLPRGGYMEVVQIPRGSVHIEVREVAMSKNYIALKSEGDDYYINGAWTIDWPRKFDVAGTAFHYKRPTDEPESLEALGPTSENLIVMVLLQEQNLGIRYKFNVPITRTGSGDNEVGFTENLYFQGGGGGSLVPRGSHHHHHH
pIC50: −log10 of the molar value.
readout.type: pIC50

molecule=COc1cc(Cl)c(C)cc1N1CCN(C(=O)CC[C@@]2(C)NC(=O)NC2=O)C[C@@H]1C measured="7.60 to 12.00"
molecule="COc1cc(N2CCN(C(=O)CCC3(c4cccnc4)NC(=O)NC3=O)CC2)cc(F)c1F (stereo not shown)" measured="7.30 to 7.60"
molecule="COC[C@]1(C[C@H](C)C(=O)N2CCN(c3cc(C)c(Cl)c(OC)c3)[C@@H](C)C2)NC(=O)NC1=O (mixture of isomers)" measured="7.60 to 12.00"
molecule="COc1cc(N2CCN(C(=O)[C@@H](C)C[C@@]3(C)NC(=O)NC3=O)CC2)cc(F)c1F (stereo in doubt)" measured="7.60 to 12.00"
molecule=COc1cc(N2CCN(C(=O)CC[C@@]3(C)NC(=O)NC3=O)C[C@@H]2C)cc(Cl)c1Cl measured="7.60 to 12.00"
molecule="COc1cc(F)cc(N2CCN(C(=O)CCC3(C4CC4)NC(=O)NC3=O)CC2)c1 (stereo not shown)" measured="< 7.00"

Item: `CCc1cc(CC)cc(N2CCN(C(=O)CC[C@@]3(C)NC(=O)NC3=O)CC2)c1` | pIC50: < 7.00

Item: COc1cc(N2CCN(C(=O)CCC3(C)NC(=O)NC3=O)C[C@@H]2C)cc(F)c1Cl (stereo partly shown) | pIC50: 7.60 to 12.00

Item: `COc1cc(N2CCN(C(=O)CC[C@@]3(C)NC(=O)NC3=O)C[C@@H]2C)ccc1F` | pIC50: 7.60 to 12.00

Item: `COc1cc(N2CCN(C(=O)CC[C@@]3(C)NC(=O)NC3=O)CC2)cc(OC)c1F` | pIC50: 7.60 to 12.00

----------
- subject.of.test: UniProt:O75173
- Sequence (O75173 213-837): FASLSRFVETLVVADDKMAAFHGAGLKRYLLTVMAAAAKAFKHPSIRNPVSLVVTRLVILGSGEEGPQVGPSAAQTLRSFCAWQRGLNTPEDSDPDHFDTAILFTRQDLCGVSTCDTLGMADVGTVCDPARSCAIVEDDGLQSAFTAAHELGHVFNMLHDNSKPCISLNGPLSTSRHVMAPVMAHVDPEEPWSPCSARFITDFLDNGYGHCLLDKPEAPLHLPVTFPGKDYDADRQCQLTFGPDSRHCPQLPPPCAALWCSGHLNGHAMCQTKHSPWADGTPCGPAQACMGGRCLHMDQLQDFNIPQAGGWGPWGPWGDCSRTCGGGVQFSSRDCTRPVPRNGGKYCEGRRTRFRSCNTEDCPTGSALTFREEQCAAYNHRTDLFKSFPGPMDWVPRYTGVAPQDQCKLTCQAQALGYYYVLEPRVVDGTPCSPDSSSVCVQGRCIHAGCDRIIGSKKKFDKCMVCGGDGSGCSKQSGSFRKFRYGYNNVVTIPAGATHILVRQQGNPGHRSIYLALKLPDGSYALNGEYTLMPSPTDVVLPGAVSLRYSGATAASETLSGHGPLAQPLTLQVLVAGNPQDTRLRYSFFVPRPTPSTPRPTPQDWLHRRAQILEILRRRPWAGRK
- assay.procedure: hADAMTS-4 TBIS-1 cleavage assay, Protocol 2
- Format: biochemical
readout.type: IC50

molecule="COc1cc(N2CCN(C(=O)[C@@H](C)C[C@@]3(C)NC(=O)NC3=O)CC2)cc(OC)c1Cl (stereo in doubt)" measured="25 to 50 nM"
molecule=COc1cc(N2CCN(C(=O)[C@@H](C)C[C@@]3(C)NC(=O)NC3=O)CC2)cc(F)c1Cl measured="50 to 100 nM"
molecule=COc1cc(N2CCN(C(=O)CC[C@@]3(C4CC4)NC(=O)NC3=O)C[C@@H]2C)cc(F)c1Cl measured="50 to 100 nM"
molecule=COc1cc(N2CCN(C(=O)CC[C@@]3(C4CC4)NC(=O)NC3=O)C[C@@H]2C)cc(Cl)c1F measured="50 to 100 nM"
molecule=COc1cc(N2CCN(C(=O)[C@@H](CO)C[C@@]3(C)NC(=O)NC3=O)CC2)cc(F)c1F measured="25 to 50 nM"

# lookup: `COc1cc(F)cc(N2CCN(C(=O)[C@@H](C)C[C@@]3(C4CC4)NC(=O)NC3=O)CC2)c1` on UniProt:O75173, IC50 = 0.001 to 25 nM

# lookup: COCC1(CC(C)C(=O)N2CCN(c3cc(F)c(F)c(OC)c3)[C@@H](C)C2)NC(=O)NC1=O (mixture of isomers) on UniProt:O75173, IC50 = 25 to 50 nM

# lookup: `COc1cc(N2CCN(C(=O)CC[C@@]3(C)NC(=O)NC3=O)C[C@@H]2C)cc(Cl)c1Cl` on UniProt:O75173, IC50 = 25 to 50 nM

# lookup: COc1cc(N2CCN(C(=O)C(C)CC3(C)NC(=O)NC3=O)C[C@@H]2C)cc(C)c1Cl (mixture of isomers) on UniProt:O75173, IC50 = 50 to 100 nM

# lookup: `COc1cc(N2CCN(C(=O)[C@@H](C)C[C@@]3(c4ccccn4)NC(=O)NC3=O)CC2)cc(F)c1F` on UniProt:O75173, IC50 = 25 to 50 nM

# lookup: `COC[C@]1(C[C@H](C)C(=O)N2CCN(c3cc(F)c(Cl)c(OC)c3)CC2)NC(=O)NC1=O` on UniProt:O75173, IC50 = 50 to 100 nM

# lookup: `COc1cc(F)cc(N2CCN(C(=O)[C@@H](C)C[C@@]3(C)NC(=O)NC3=O)CC2)c1` on UniProt:O75173, IC50 = 25 to 50 nM
